# measured_on: human MRGPR X4 (Homo sapiens, UniProt Q96LA9)
# Construct: expressed in transfected cells
# Sequence (Q96LA9 whole entry): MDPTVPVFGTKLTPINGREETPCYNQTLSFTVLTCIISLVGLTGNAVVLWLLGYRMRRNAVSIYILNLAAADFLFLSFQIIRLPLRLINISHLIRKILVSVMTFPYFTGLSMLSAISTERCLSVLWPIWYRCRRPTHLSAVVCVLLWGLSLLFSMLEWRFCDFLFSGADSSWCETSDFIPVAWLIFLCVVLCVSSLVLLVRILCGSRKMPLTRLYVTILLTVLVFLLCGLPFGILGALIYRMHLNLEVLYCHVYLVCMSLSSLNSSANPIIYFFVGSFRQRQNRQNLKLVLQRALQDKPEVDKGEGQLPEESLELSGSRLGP
# assay_text: MRGPR X4 antagonist activity, IP-One Gq HTRF assay in stably transfected HEK cells
# Assay type: cell-based
# test_settings: versus 20 μM deoxycholic acid agonist; HEK cells expressing human MRGPR X4; read-out: MRGPRX4 Antagonist Activity
pIC50: −log10 of the molar value.
Hi there, I'd appreciate the recorded pIC50 for every entry that follows.

Example entries and their recorded answers appear below.
{"columns": ["compound", "result"],
 "data": [
  ["Cc1cc(S(=O)(=O)NC(=O)c2nn(Cc3ccc(OC(F)F)cc3)c3ccccc23)ccc1C#N [Compound 259]", "6.30 to 7.00"],
  ["O=C(CSc1cn(Cc2ccc(Br)cc2)c2ccccc12)N1CCCC1 [Compound 315]", "5.60 to 6.00"],
  ["Cc1cc(S(=O)(=O)NC(=O)c2nn(Cc3ccc(OC(F)F)cc3)c3ccccc23)ccc1F [Compound 290]", "5.60 to 6.00"],
  ["O=C(CS(=O)(=O)c1cn(Cc2ccc(Cl)cc2)c2ccccc12)Nc1ccc(Cl)cc1 [Compound 256]", "< 5.60"],
  ["O=C(CS(=O)(=O)c1cn(Cc2ccc(Cl)cc2)c2ccccc12)Nc1ccc(F)cc1 [Compound 245]", "6.00 to 6.30"]
]}

# context switch: different compound, same pIC50
Short answer please: pIC50, human MRGPR X4 (Homo sapiens, UniProt Q96LA9), entry CN(C)C(=O)CS(=O)(=O)c1cn(Cc2ccc(Cl)cc2)c2ccccc12 [Compound 252]
5.60 to 6.00
